Below: a set of entries, each annotated with reported cell viability.
# Test system: Vero E6
# measurement.protocol: cell viability relative to DMSO; higher = less toxic
# assay.setup: 72 h; 10000 nM
// return numeric value only (unit: %, not printed)

For orientation, consider the following solved cases.
Find cell viability (Vero E6) for the entry CCCCc1ccc2[nH]c(NC(=O)OC)nc2c1 [parbendazole]
28.8

Find cell viability (Vero E6) for the entry CCN1CCN(C(=O)N[C@@H](C(=O)N[C@@H]2C(=O)N3C(C(=O)O)=C(CSc4nnnn4C)CS[C@H]23)c2ccc(O)cc2)C(=O)C1=O [cefoperazone]
98.4

Find cell viability (Vero E6) for the entry COC(=O)c1cc2c(C(F)(F)F)cc(-c3ccccc3)cc2n1O [NHI-2]
97.5

Find cell viability (Vero E6) for the entry CC(=O)NCC(=O)N[C@H](CCC(=O)O)C(=O)O [N-acetylglycyl-D-glutamic-acid]
99.6

Find cell viability (Vero E6) for the entry CSc1nc(-c2ccc(F)cc2)c(-c2ccnc(N[C@@H](C)c3ccccc3)c2)[nH]1 [ML3403]
88.7

Find cell viability (Vero E6) for the entry O=C(O)CCCC[C@@H]1SC[C@@H]2NC(=O)N[C@@H]21 [biotin]
106

Consider now this further compound.
Find cell viability (Vero E6) for the entry CC[C@@H](C)c1ccc(NC(=O)Cn2cnc3c2c(=O)n(C)c(=O)n3C)cc1 (racemic)
106
